Where do these numbers come from? They come from patent USRE46585.

TARGET: T1, FcRn-p3 fusion protein (human, UniProt P55899 24-297; P61769 21-119)
T1 construct: baculovirus expressed; coated on ELISA wells; not shown: amino terminal part of bacteriophage p3 protein and CVDE protein
T1 sequence (P55899 24-297, chain 1 of 2): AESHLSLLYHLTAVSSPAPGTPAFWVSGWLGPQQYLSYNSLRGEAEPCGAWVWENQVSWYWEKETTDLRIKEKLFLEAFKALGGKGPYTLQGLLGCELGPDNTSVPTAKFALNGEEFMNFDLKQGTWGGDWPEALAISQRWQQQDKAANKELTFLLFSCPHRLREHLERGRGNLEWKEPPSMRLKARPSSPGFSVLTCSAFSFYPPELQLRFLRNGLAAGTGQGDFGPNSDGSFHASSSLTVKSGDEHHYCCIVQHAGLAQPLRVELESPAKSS
T1 sequence (P61769 21-119, chain 2 of 2): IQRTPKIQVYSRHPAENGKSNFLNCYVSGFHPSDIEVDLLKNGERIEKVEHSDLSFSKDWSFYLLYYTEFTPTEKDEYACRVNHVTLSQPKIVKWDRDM
ASSAY_TEXT: phage ELISA pH6
What Ratio/Fc-H was measured for each of the following?
Please respond with the number in fold and leave the unit unwritten.

Please report the recorded Ratio/Fc-H for C7A_02 (other, EU numbering) CPPCPAPELLGGPSVFLFPPKPKDTLMISRTPEVTCVVEDVSHEDPEVKFNWYVDGVEVHNAKTKPREEQYNSTYRVVSVLTVLHQDWLNGKEYKCKVSNKALPAPIEKTISKAKGQPREPQVYTLPPSRDELTKNQVSLTCLVRGFYPSDIVVEWESNGQPENNYKTTPPVLDSDGSFFLYSKLTVDKSRWQQGNVFSCSVMHEALHYHYTQKSLSLSPGK .
2.2

Then what about the binder C5A_41 (other, EU numbering) CPPCPAPELLGGPSVFLFPPKPKDTLMISRTPEVTCVVVDVSHEDPEVKFNWYVDGVEVHNAKTKPREEQYNSTYRVVSVLTVLHQDWLDGKEYKCKVSNKTLPVPIEKTISKAKGQPREPQVYTLPPSRDELTKNRVSLTCLVKGFYPSDIAVEWESNGQPENNYKTTPPVLDSDGSFFLYSKLTVDKSRWQQGNVFSCSVMHEALHYHYTQKSLSLSPGK ?
1.3

Subsequent entry: T3A_43 (other, EU numbering) CPPCPAPELLGGPSVFLFPPKPKDTLMISRTPEVTCVVEDVSHEDPEVKFNWYVDGVEVHNAKTKPREEQYNSTYRVVSVLTVLHQDWLNGKEYKCKVSNKALPAPIEKTISKAKGQPRGPQVYTLPPSRDELTKNQVSLTCLVKGFYPSDIVVEWESNGQPENNYKTTPPVLDSDGSFFLYSKLTVDKSRWQQGNVFSCSVMHEALHNHYTQKSLSLSPGK
1.4

T6A_40 (other, EU numbering) CPPCAAPELLGGPSVLLFPPKPKDTLMISRTPEVTCVVEDVSHEDPEVKFNWYVDGVEVHNAKTKPREEQYNSTYRVVSVLTVLHQDWLNGKEYKCKVSNKALPAPIEKTISKAKGQPREPQVYTLPPSRDELTKNQVSLTCLVKGFYPSDIVVEWESNGQPENNYKTTPPVLDSDGSFFLYSKLTVDKSRWQQGTVFSCSVMHEALHNHYTQKSLSLSPGK , same question.
2.8

Same lookup for T5A_44 (other, EU numbering) CPPCPAPELLGGPSVLLFPPKPKDTLMISRTPEVTCVVEDVSHEDPEVKFNWYVDGVEVHNAKTKPREEQYNSTYRVVSVLPVLHQDWLNGKEYKCKVSNKALPAPIEKTISKAKGQPREPQVYTLPPSRDELTKNQVSLTCLVKGFYPSDITVEWESNGQPENNYKTTPPMLDSDGSFFLYSKLTVDKSRWQQGNVFSCSVMHEALHNHYTQKSLSLSPGK , please.
1.2
